Test system PI3Kα (Homo sapiens, UniProt P42336), IC50 listed for each of the molecules.
measuredAttribute: IC50 (nM)

Record excerpt, results attached:
C[C@H](Nc1cc(F)c2c(c1)OCCn1cc(N3C(=O)OC[C@H]3C(F)F)nc1-2)C(N)=O 5.2
C[C@@H](C(N)=O)N(C)c1ccc2c(c1)OCCn1cc(N3C(=O)SC[C@H]3C(F)F)nc1-2 2.2
C[C@H](Nc1ccc2c(c1)OCCn1cc(N3C(=O)SC[C@H]3CC#N)nc1-2)C(N)=O 2.4
C[C@H](Nc1ccc2c(c1)OCCn1cc(N3C(=O)SC[C@H]3C(F)F)nc1-2)C(N)=O 0.2
COC[C@H](Nc1ccc2c(c1F)OCCn1cc(N3C(=O)SC[C@H]3C(F)F)nc1-2)C(N)=O 6.8

I. C[C@H](Nc1ccc2c(c1)OCCn1cc(N3C(=O)O[C@H](C)[C@H]3C(F)F)nc1-2)C(N)=O
II. C[C@H](Nc1ccc2c(c1)OCCn1c-2nc(N2C(=O)OC[C@H]2C(F)F)c1F)C(N)=O
III. C[C@H](Nc1ccc2c(c1)OCCn1cc(N3C(=O)N(C)C[C@H]3C(F)F)nc1-2)C(N)=O
IV. C[C@H](Nc1ccc2c(c1)OCCn1cc(N3C(=O)CN(C)C[C@H]3C(F)F)nc1-2)C(N)=O
Input: Order each entry by recorded IC50, climbing from the minimum. Answer format: the labels, ordered as requested.
Output: I, IV, III, II

Data credit: patent US20210221822A1
